Listed next: entries and their corresponding Biodistribution: Liver.
- PROTOCOL DESCRIPTION: In vivo biodistribution in mice
- Design: species or system normal CD-1 male mice
- CONDITION INFO: iv, 60 min (1 hr) post injection
- Protocol: Biodistribution experiments were performed by intravenously administering ^68Ga labeled 1a-h, 2, 3, BPAMD, and [^18F]NaF into normal, healthy male CD-1 mice (25-30 g). The injection activity was 20-30 μCi/animal. […] Organs of interest were harvested, weighed, and counts of radioactivity were measured by a gamma counter. The biodistribution of each sample was calculated as a percentage of the injected dose per gram of wet tissue weight (% ID/g). […]
OUTCOME MEASURE: Biodistribution: Liver

COMPOUND	READOUT VALUE
O=C([O-])CN(CCN(CC(=O)[O-])Cc1cc(CCC(=O)NC(P(=O)(O)O)P(=O)(O)O)ccc1[O-])Cc1cc(CCC(=O)NC2C(O)OC(CO)C(O)C2O)ccc1[O-].[68Ga+3] (stereo not drawn) [[^68Ga]1b]	1.15 ± 0.13 % dose/g
O=C([O-])CN(CCN(CC(=O)[O-])Cc1cc(CCC(=O)NC(P(=O)(O)O)P(=O)(O)O)ccc1[O-])Cc1cc(CCC(=O)O)ccc1[O-].[68Ga+3] [[^68Ga]1a]	0.17 ± 0.01 % dose/g
O=C([O-])CN(CCN(CC(=O)[O-])Cc1cc(CCC(=O)NC(P(=O)(O)O)P(=O)(O)O)ccc1[O-])Cc1cc(CCC(=O)NC(P(=O)(O)O)P(=O)(O)O)ccc1[O-].[68Ga+3] [[^68Ga]2]	0.43 ± 0.03 % dose/g
